Reference source: patent US20260325654A1

Target: KRAS(G12C) (Homo sapiens, UniProt P01116, G12C)
Construct: LU65A that expresses KRAS(G12C); host or cells: LU65A
Sequence (P01116 1-185 isoform P01116-2 G12C limits assumed): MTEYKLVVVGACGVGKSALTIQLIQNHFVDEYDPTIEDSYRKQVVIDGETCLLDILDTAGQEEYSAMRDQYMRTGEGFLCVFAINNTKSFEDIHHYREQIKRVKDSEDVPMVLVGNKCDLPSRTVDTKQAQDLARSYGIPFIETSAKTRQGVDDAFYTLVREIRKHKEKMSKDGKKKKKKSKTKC
Assay: KRAS Western Blot Protein Degradation Assay, LU65A
Format: cell-based
Settings: 24 hr, read-out: WB data LU65A DMax
reported.endpoint: Dmax

Notebook entry, KRAS(G12C) (Homo sapiens, UniProt P01116, G12C) assay: Dmax of O=CO.[2H]C([2H])([2H])Oc1nc(-c2cc(O)cc3ccc(F)c(C#C)c23)c(F)c2nc(OCC3(CN4CCN(CC5CCN(c6ccc7c(c6)CN(C6CCC(=O)NC6=O)C7=O)CC5)CC4)CC3)nc(N3CC4CCC(C3)N4C(=O)CCC#N)c12 (stereo not shown) = ? > 50%

Item: C#Cc1c(F)ccc2cc(O)cc(-c3ncc4c(N5CCN(C(=O)CC#N)[C@@H](CC#N)C5)nc(OCC5(CN6CCN(CC7CCN(c8ccc9c(c8)CN(C8CCC(=O)NC8=O)C9=O)CC7)CC6)CC5)nc4c3F)c12 (stereo partly shown) Test system: KRAS(G12C) (Homo sapiens, UniProt P01116, G12C) Read-out: Dmax Value: ? 10 to 50%

Recall the recorded Dmax for C#Cc1c(F)ccc2cc(O)cc(-c3ncc4c(N5CC6CCC(C5)N6C(=O)C(C)C#N)nc(OCC5(CN6CCN(CC7CCN(c8ccc9c(c8)CN(C8CCC(=O)NC8=O)C9=O)CC7)CC6)CC5)nc4c3F)c12 (stereo not shown) with KRAS(G12C) (Homo sapiens, UniProt P01116, G12C) and state it. > 50%

Give Dmax (KRAS(G12C) (Homo sapiens, UniProt P01116, G12C)) of the following molecule: C#Cc1c(F)ccc2cc(O)cc(-c3ncc4c(N5CCN(C(=O)C(=C)F)[C@@H](CC#N)C5)nc(OCC5(CN6CCN(CC7CCN(c8ccc9c(c8)CN(C8CCC(=O)NC8=O)C9=O)CC7)CC6)CC5)nc4c3F)c12 (stereo partly shown) > 50%

Which measured Dmax belongs to C#Cc1c(F)ccc2cc(O)cc(-c3ncc4c(N5CC6CCC(C5)N6C(=O)C5(C#N)CC5)nc(OCC5(CN6CCN(CC7CCN(c8ccc9c(c8)CN(C8CCC(=O)NC8=O)C9=O)CC7)CC6)CC5)nc4c3F)c12 (stereo not shown) , tested on KRAS(G12C) (Homo sapiens, UniProt P01116, G12C)? > 50%

Give KRAS(G12C) (Homo sapiens, UniProt P01116, G12C) Dmax for C#Cc1c(F)ccc2cc(O)cc(-c3ncc4c(N5CCN(C(=O)C=C)[C@@H](CC#N)C5)nc(OCC5(CN6CCN(CC7CCN(c8ccc9c(c8)CN(C8CCC(=O)NC8=O)C9=O)CC7)CC6)CC5)nc4c3F)c12 (stereo partly shown) > 50%

# get_value(readout= Dmax, system= KRAS(G12C) (Homo sapiens, UniProt P01116, G12C)) for O=CO.[2H]C([2H])([2H])Oc1nc(-c2cc(O)cc3ccc(F)c(C#C)c23)c(F)c2nc(OCC3(CN4CCN(CC5CCN(c6ccc7c(c6)CN(C6CCC(=O)NC6=O)C7=O)CC5)CC4)CC3)nc(N3CC4CCC(C3)N4C(=O)CC(C)C#N)c12 (stereo not shown) > 50%

Param readout= Dmax; system= KRAS(G12C) (Homo sapiens, UniProt P01116, G12C); entry= C#Cc1c(F)ccc2cc(O)cc(-c3nc(OC)c4c(N5CC6CCC(C5)N6C(=O)CC#N)nc(OCC5(CN6CCN(CC7CCN(c8ccc9c(c8)CN(C8CCC(=O)NC8=O)C9=O)CC7)CC6)CC5)nc4c3F)c12 (stereo not shown) ; returns value. 10 to 50%

Report Dmax for C#Cc1c(F)ccc2cc(O)cc(-c3ncc4c(N5CC6CCC(C5)N6C(=O)CC#N)nc(OCC5(CN6CCN(CC7CCN(c8ccc9c(c8)CN(C8CCC(=O)NC8=O)C9=O)CC7)CC6)CC5)nc4c3F)c12 (stereo not shown) tested on KRAS(G12C) (Homo sapiens, UniProt P01116, G12C). > 50%

Form entry - test system: KRAS(G12C) (Homo sapiens, UniProt P01116, G12C); read-out: Dmax; molecule: C#Cc1c(F)ccc2cc(O)cc(-c3ncc4c(N5CC6CCC(C5)N6C(=O)C(C)(C)C#N)nc(OCC5(CN6CCN(CC7CCN(c8ccc9c(c8)CN(C8CCC(=O)NC8=O)C9=O)CC7)CC6)CC5)nc4c3F)c12 (stereo not shown) 10 to 50%
